Biological target: GSPT1 (Homo sapiens, UniProt P15170+Q96SW2)
Sequence (P15170 whole entry): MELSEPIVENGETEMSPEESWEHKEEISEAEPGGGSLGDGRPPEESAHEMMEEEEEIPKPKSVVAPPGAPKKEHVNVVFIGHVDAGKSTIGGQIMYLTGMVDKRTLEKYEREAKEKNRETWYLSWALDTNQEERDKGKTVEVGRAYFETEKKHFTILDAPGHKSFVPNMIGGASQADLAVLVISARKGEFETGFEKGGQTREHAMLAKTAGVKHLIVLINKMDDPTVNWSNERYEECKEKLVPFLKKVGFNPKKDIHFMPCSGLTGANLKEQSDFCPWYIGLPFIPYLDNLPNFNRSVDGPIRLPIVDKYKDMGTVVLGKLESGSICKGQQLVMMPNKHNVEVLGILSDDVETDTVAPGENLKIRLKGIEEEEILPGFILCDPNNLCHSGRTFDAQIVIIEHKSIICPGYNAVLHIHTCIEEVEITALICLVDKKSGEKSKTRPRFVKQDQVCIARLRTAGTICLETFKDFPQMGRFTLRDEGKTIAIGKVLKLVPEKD
Sequence (Q96SW2 whole entry): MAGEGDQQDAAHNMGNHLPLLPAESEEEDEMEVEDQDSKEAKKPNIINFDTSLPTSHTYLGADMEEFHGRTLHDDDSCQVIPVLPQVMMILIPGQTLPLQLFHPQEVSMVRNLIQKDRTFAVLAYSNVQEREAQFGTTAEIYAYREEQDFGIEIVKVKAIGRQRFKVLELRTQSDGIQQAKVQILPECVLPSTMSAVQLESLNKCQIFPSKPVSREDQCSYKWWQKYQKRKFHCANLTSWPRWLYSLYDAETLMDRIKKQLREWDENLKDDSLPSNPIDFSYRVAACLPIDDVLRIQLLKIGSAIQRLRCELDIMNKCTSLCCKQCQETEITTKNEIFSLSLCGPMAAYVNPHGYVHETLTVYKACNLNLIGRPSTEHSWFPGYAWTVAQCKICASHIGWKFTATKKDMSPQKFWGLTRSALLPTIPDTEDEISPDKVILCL
Sequence (Q16531 whole entry partner): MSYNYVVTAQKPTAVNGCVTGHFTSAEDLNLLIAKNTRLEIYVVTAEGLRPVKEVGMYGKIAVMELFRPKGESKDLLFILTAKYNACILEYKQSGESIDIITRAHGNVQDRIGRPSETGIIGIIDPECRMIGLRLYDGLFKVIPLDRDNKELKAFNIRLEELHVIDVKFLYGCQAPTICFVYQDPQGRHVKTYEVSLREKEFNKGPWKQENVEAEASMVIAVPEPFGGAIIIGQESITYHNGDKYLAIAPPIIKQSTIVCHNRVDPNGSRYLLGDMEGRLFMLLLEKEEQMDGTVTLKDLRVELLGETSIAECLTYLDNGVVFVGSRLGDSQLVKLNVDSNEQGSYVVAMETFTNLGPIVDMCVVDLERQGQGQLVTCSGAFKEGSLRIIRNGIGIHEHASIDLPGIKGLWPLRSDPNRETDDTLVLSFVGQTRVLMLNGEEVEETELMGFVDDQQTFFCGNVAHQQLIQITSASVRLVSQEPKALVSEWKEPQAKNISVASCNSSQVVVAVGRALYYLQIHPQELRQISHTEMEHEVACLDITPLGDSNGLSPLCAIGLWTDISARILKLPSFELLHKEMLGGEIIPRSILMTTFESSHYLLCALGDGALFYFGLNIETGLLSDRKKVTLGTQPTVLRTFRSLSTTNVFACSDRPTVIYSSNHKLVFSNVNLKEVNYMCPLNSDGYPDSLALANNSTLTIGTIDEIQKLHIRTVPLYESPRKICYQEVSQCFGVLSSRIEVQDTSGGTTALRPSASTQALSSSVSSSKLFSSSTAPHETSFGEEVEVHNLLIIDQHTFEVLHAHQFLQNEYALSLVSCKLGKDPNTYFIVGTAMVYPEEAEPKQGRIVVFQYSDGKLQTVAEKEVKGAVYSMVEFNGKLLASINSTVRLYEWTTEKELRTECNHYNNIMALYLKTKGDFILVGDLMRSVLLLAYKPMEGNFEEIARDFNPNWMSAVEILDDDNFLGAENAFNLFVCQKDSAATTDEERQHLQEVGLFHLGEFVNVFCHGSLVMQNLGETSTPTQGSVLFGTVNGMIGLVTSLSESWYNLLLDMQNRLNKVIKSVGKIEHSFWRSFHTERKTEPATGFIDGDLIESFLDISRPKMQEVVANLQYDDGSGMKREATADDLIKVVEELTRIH
Test: Immunofluorescence assay for GSPT1 degradation in CAL-Si cells
Type: cell-based
Design: CAL-Si cells were purchased from DSMZ (cat. Number ACC302); host or cells: CAL-Si (CAL-51) cells
Settings: GSPT1 degradation, 6 hours treatment, read-out: DC50
parameter.measured: DC50 (nM)
Give the value, in units of nM, as a plain number.

Need DC50 of Cc1c(F)cc(NC(=O)CCc2ccc3c(c2)C(=O)N(C2CCC(=O)NC2=O)C3)cc1CN1CCOCC1 (stereo not shown) , thanks.
30

Need DC50 of O=C1CCC(N2Cc3ccc(CCC(=O)Nc4cc(Cl)cc(OC(F)F)c4)cc3C2=O)C(=O)N1 (stereo not shown) , thanks.
27

Need DC50 of CC(C)(C)c1ccc(NC(=O)CCc2ccc3c(c2)C(=O)N(C2CCC(=O)NC2=O)C3)cn1 (stereo not shown) , thanks.
26

Need DC50 of CC(C)(C)c1ccc(NC(=O)CCc2ccc3c(c2)C(=O)N(C2CCC(=O)NC2=O)C3)cc1 (stereo not shown) , thanks.
22

Need DC50 of Cc1ccc(NC(=O)CCc2ccc3c(c2)C(=O)N(C2CCC(=O)NC2=O)C3)cc1Cl (stereo not shown) , thanks.
16

Need DC50 of Cc1c(Cl)cc(NC(=O)CCc2ccc3c(c2)C(=O)N(C2CCC(=O)NC2=O)C3)cc1CN1CCOCC1 (stereo not shown) , thanks.
6

Need DC50 of CCc1cc(NC(=O)CCc2ccc3c(c2)C(=O)N(C2CCC(=O)NC2=O)C3)cc(Cl)c1C (stereo not shown) , thanks.
26

====

Molecular target: Full length wild-type cereblon CRBN (Homo sapiens)
Construct: Full length wild-type cereblon CRBN (80.0 nM, 10 μL) was incubated in assay buffer
Sequence (Q96SW2 whole entry): as the sequence (Q96SW2 whole entry) above
Assay: Fluorescence polarization (FP) assay indicating cereblon binding
Details: cereblon binding, CRBN 80.0 nM, probe 5 nM, FP read after 12 hours; read-out: rFP IC50
parameter.measured: IC50

Need IC50 of O=C1CCC(N2Cc3ccc(CCC(=O)Nc4cccc(OC(F)(F)F)c4)cc3C2=O)C(=O)N1 (stereo not drawn) , thanks.
1100 to 1700 nM

Need IC50 of Cc1c(Cl)cc(NC(=O)CCc2ccc3c(c2)C(=O)N(C2CCC(=O)NC2=O)C3)cc1OCC1CCNC1 (stereo not drawn) , thanks.
≤ 500 nM

Need IC50 of O=C1CCC(N2Cc3ccc(CCC(=O)Nc4cc(Cl)cc(OC(F)F)c4)cc3C2=O)C(=O)N1 (stereo not drawn) , thanks.
> 1700 nM

Need IC50 of Cc1ccc(NC(=O)CCc2ccc3c(c2)C(=O)N(C2CCC(=O)NC2=O)C3)cc1Cl (stereo not drawn) , thanks.
≤ 500 nM

Need IC50 of O=C1CCC(N2Cc3ccc(CCC(=O)Nc4cnc5c(c4)COCC5)cc3C2=O)C(=O)N1 (stereo not drawn) , thanks.
1100 to 1700 nM

Need IC50 of Cc1cc(NC(=O)CCc2ccc3c(c2)C(=O)N(C2CCC(=O)NC2=O)C3)cc(C)n1 (stereo not drawn) , thanks.
> 1700 nM

====

Consider the following compounds; for each one, report its IC50.
Target: Full length wild-type cereblon CRBN (Homo sapiens)
Construct: Full length wild-type cereblon CRBN (80.0 nM, 10 μL) was incubated in assay buffer
Test: Fluorescence polarization (FP) assay indicating cereblon binding
Conditions: fluorescence polarization assay; read-out: IC50 value (cereblon binding)

Need IC50 of O=C1CCC(N2Cc3ccc(CCC(=O)Nc4cc(Cl)cc(OCC5CCNC5)c4)cc3C2=O)C(=O)N1 (centres unmarked) , thanks.
< 1100 nM

Need IC50 of CCc1cc(NC(=O)CCc2ccc3c(c2)C(=O)N(C2CCC(=O)NC2=O)C3)ccn1 (centres unmarked) , thanks.
< 1100 nM

Need IC50 of COc1cc(NC(=O)CCc2ccc3c(c2)C(=O)N(C2CCC(=O)NC2=O)C3)ccc1C (centres unmarked) , thanks.
< 1100 nM

Need IC50 of Cc1c(Cl)cc(NC(=O)CCc2ccc3c(c2)C(=O)N(C2CCC(=O)NC2=O)C3)cc1CN1CC2CC1CO2 (centres unmarked) , thanks.
< 1100 nM

Need IC50 of CC(F)(F)c1ccc(NC(=O)CCc2ccc3c(c2)C(=O)N(C2CCC(=O)NC2=O)C3)cc1 (centres unmarked) , thanks.
< 1100 nM

====

Target: GSPT1 (Homo sapiens, UniProt P15170+Q96SW2)
Experiment: Immunofluorescence assay for GSPT1 degradation in CAL-Si cells
Assay type: cell-based
Parameters: CAL-Si cells were purchased from DSMZ (cat. Number ACC302); host or cells: CAL-Si (CAL-51) cells
Details: 6 hours treatment, read-out: Code: activity for GSPT1 degradation (DC50)
parameter.measured: DC50

Need DC50 of Cc1c(F)cc(NC(=O)CCc2ccc3c(c2)C(=O)N(C2CCC(=O)NC2=O)C3)cc1CN1CCOCC1 (stereo not drawn) [Compound 42] , thanks.
≤ 30 nM

Need DC50 of O=C1CCC(N2Cc3ccc(CCC(=O)Nc4ccc(F)c(OC(F)F)c4)cc3C2=O)C(=O)N1 (stereo not drawn) [Compound 30] , thanks.
30 to 300 nM

Need DC50 of O=C1CCC(N2Cc3ccc(CCC(=O)Nc4cc(F)cc(OC(F)(F)F)c4)cc3C2=O)C(=O)N1 (stereo not drawn) [Compound 56] , thanks.
30 to 300 nM

Need DC50 of O=C1CCC(N2Cc3ccc(CCC(=O)Nc4ccc(F)c(Cl)c4)cc3C2=O)C(=O)N1 (stereo not drawn) [Compound 8] , thanks.
30 to 300 nM

Need DC50 of Cc1c(Cl)cc(NC(=O)CCc2ccc3c(c2)C(=O)N(C2CCC(=O)NC2=O)C3)cc1OCCN1CCOCC1 (stereo not drawn) [Compound 39] , thanks.
30 to 300 nM

Need DC50 of O=C1CCC(N2Cc3ccc(CCC(=O)Nc4cc(OC(F)(F)F)ccn4)cc3C2=O)C(=O)N1 (stereo not drawn) [Compound 59] , thanks.
> 300 nM

Need DC50 of O=C1CCC(N2Cc3ccc(CCC(=O)Nc4cc(Cl)cc(OC(F)F)c4)cc3C2=O)C(=O)N1 (stereo not drawn) [Compound 23] , thanks.
≤ 30 nM

Need DC50 of CC(C)(C)c1ccc(NC(=O)CCc2ccc3c(c2)C(=O)N(C2CCC(=O)NC2=O)C3)cc1 (stereo not drawn) [Compound 45] , thanks.
≤ 30 nM

Need DC50 of COc1ccc(Cl)cc1NC(=O)CCc1ccc2c(c1)C(=O)N(C1CCC(=O)NC1=O)C2 (stereo not drawn) [Compound 14] , thanks.
> 300 nM

Need DC50 of O=C1CCC(N2Cc3ccc(CCC(=O)Nc4cnc5c(c4)CCC5)cc3C2=O)C(=O)N1 (stereo not drawn) [Compound 49] , thanks.
> 300 nM

Need DC50 of O=C1CCC(N2Cc3ccc(CCC(=O)Nc4ccc(F)c(OC(F)(F)F)c4)cc3C2=O)C(=O)N1 (stereo not drawn) [Compound 60] , thanks.
30 to 300 nM

Need DC50 of O=C1CCC(N2Cc3ccc(CCC(=O)Nc4cc(Cl)cc(OC5CCNC5)c4)cc3C2=O)C(=O)N1 (stereo not drawn) [Compound 19] , thanks.
> 300 nM

Need DC50 of O=C1CCC(N2Cc3ccc(CCC(=O)Nc4cc(Cl)cc(OCC5CCNC5)c4)cc3C2=O)C(=O)N1 (stereo not drawn) [Compound 25] , thanks.
> 300 nM

Need DC50 of CCc1cc(NC(=O)CCc2ccc3c(c2)C(=O)N(C2CCC(=O)NC2=O)C3)sn1 (stereo not drawn) [Compound 65] , thanks.
30 to 300 nM

Need DC50 of Cc1c(Cl)cc(NC(=O)CCc2ccc3c(c2)C(=O)N(C2CCC(=O)NC2=O)C3)cc1OCC1CCN(C)C1 (stereo not drawn) [Compound 61] , thanks.
> 300 nM

====

Biological target: Full length wild-type cereblon CRBN (Homo sapiens)
Construct: Full length wild-type cereblon CRBN (80.0 nM, 10 μL) was incubated in assay buffer
Assay: Fluorescence polarization (FP) assay indicating cereblon binding
Conditions: cereblon binding, CRBN 80.0 nM, probe 5 nM, FP read after 12 hours; read-out: rFP IC50
parameter.measured: IC50

Need IC50 of CCc1cc(NC(=O)CCc2ccc3c(c2)C(=O)N(C2CCC(=O)NC2=O)C3)ccn1 (stereo not shown) [Compound 54] , thanks.
0.5 to 1.1 µM

Need IC50 of Cc1c(Cl)cc(NC(=O)CCc2ccc3c(c2)C(=O)N(C2CCC(=O)NC2=O)C3)cc1CN1CC2CC1CO2 (stereo not shown) [Compound 22] , thanks.
0.5 to 1.1 µM

Need IC50 of Cc1c(CN2CCOCC2)cc(NC(=O)CCc2ccc3c(c2)C(=O)N(C2CCC(=O)NC2=O)C3)cc1OC(F)F (stereo not shown) [Compound 35] , thanks.
0.5 to 1.1 µM

Need IC50 of O=C1CCC(N2Cc3ccc(CCC(=O)Nc4cc(Cl)cc(OC(F)(F)F)c4)cc3C2=O)C(=O)N1 (stereo not shown) [Compound 11] , thanks.
> 1.7 µM
